# assay-comment: yeast display, Sf9 membrane polyspecificity reagent, FACS + sequencing; frameworks hold sequencing errors
experimental-readout: polyreactivity (PSR sort gate)

>  <sequence-chain>
QVQLVESGRGLVQAGGSLRLSCAASGGTFGNNDMGWYRQAPGKERELVAAIRSAGTTYYADSVKGRFTISRDNAKNTVYLQMNSLKPEDTAVYYCNAYTTGYWSYGFQYYGEDYWGQGTQVTVSS

>  <polyreactivity (PSR sort gate)>
low polyreactivity

$$$$
>  <sequence-chain>
QVQHVESGGGLVQAGGSLRLSCADSGSTLRGNAMGWYRQAPGKEREMVAAISIGSRTNYADSVKGRFTISRDNAKNTDYLQMNSLKPEDTAVYYCAKDISLRVRGPYYFGFDYWGQGTQVTVSS

>  <polyreactivity (PSR sort gate)>
low polyreactivity

$$$$
>  <sequence-chain>
QVQLVESGGGLVQAGGSLRLSCAASGRIFRRNAIGWYRQAPGKERELEAAISSGCGSKYYADSVKGRFTISRDNAKNTVYLQMNSLKPEDTAVYYCNTVFYYDDVSQAHDYWGQGTQVTVSS

>  <polyreactivity (PSR sort gate)>
high polyreactivity

$$$$
>  <sequence-chain>
QVQLVESGGGLFQAGGRLRLSCAASGITFVYYAMGWSRQAPGKERELVAAISWGGGSTYYADSVKGRFTISSDNAKNTVYLQMNSLKPEDTAVYYCAADAYVNATPEVSAMGYWGQGTQVTVSS

>  <polyreactivity (PSR sort gate)>
low polyreactivity

$$$$
>  <sequence-chain>
QVQLVESGGGLVQAGGSLRLSCAASGFTFWYYAMGWYRQAPGKERELVAAITEDGDSTYYADSVKGRFTISRDNAKNTVYLQMNSLKPEDTAVYYCNTDLTFNGTSGDYDYWGQGSQVTVSS

>  <polyreactivity (PSR sort gate)>
low polyreactivity

$$$$

Q: polyreactivity (PSR sort gate) for QVQLVESGGGLVQAGGSLRLSCAASGFTFNAMGWYRQAPGKERELVARIDSDDTTNYADSVKGRFTISRDNAKNTVYLQMNSLKPEDTAVYYCNKDYAWLSYQHYDYWGQGTQVTVSS ?
Ans: low polyreactivity

Q: What does the data say about its polyreactivity (PSR sort gate)? Entry: QVQLVESGGGLVQAGGSLRLSCAASGGISSSNAMGWYRPAPGKERELVAGINSRGGSTYADSVKGRFTISRDNAKHTVYLQMNSLKPEDTAVYYCAAAPTFKWRRNNYDYWGQGTQVTVSS
Ans: high polyreactivity

Q: Could you share which polyreactivity (PSR sort gate) value was measured for QVQLVDSGGRLVQAGGSLRLSCAASGFIFGTNAMGWYRQAPGKERELVASISSTGGSTYYADSVKGRCTISRDNAKNTVYLQMNILKPEETAVYYCAADPYPEYIRYLPGVDYSGQGTQVTVSS ?
Ans: low polyreactivity

Q: Param item = QVQLVESGGGLVQAGGSLRLSCASSGSTFPSNAMGWYRQAPGKERELVAAISRSGGSTYYADSVKGRFTISRDNAKNTVYLQMNSLKPEDTAVYYCAVQVRPNYGGTRIHRGGYDYWGQGTQVTVSS ; retrieve measured polyreactivity (PSR sort gate).
Ans: low polyreactivity

Q: GET /values?readout=polyreactivity (PSR sort gate)&item= QVQLVESGGGLVQAGGSLRLSCAASGRTFISYAMGWYRQAPGKERELVAGISTSGDNTYNADSVKGRFTISRDNAKNTVYLQMNSLKPEDTAVYYCAAGQDLHDFDYWGQGTQVTVSS
Ans: low polyreactivity

Q: Value lookup for polyreactivity (PSR sort gate); key = QVQLVESGGGLVQAGGSLRLSCAASGSIFGAYTMGWYRQAPGKERELVAAITGGGITNYADSVKGRFTISRDNAKNTVYLQMNSLKPEDTAVYYCNAGYPPQTVVVGYDYWGQGTQVTVSS
Ans: low polyreactivity

Q: Requested read-out: polyreactivity (PSR sort gate). Entry: QVQLVESGGGLVQAGGSLRFSCAASGNTFYQYAMGWYRQAPGKERELVAAIVWSGGTTYYADSVKGRFTISRDNAKNTVYLQMTSLKPEDTAVYYCNADYDRGPYDYDSWGQGTQVTVSS
Ans: low polyreactivity

Q: # query: polyreactivity (PSR sort gate) of entry QDQLVESGGGLVQAGGSLRLSCAASGRIISLYAMGWYRQAPVKERDLVAAISRRSGNTNYADSVKGRFTISRDNAKNTVYLQMNSLKPEDTAVYYCAARPGAISSTSPYDYWGQGTQVTVSS
Ans: high polyreactivity

Q: Request the reported polyreactivity (PSR sort gate) associated with QVQLLESGGGLVQAGGSLRLSCAASGSTFLIYAMGWYRQAPGKERELVASINLNTGRTSYADSVKGRFTISRDNAKNTVYLQMNSLKPEDTAVYYCAAELWVRFRGVKEYDYWGQGTQVSVSS
Ans: high polyreactivity

Q: Name the reported polyreactivity (PSR sort gate) value associated with the sequence QVQLVESGGGLVQAGGSLRLSCAASGRTFQTYARGWYRQAPGKERELVAAISKSGGGTYYADSVKGRFTISRDNAKNTVYLQMNSLKPEDTAVYYCATAGYHYRAWGGRYDYWGQGTQVTVSS
Ans: high polyreactivity

Data origin: the nanobody polyreactivity screen of Harvey et al. (2022)
